system: MS2 coat protein; test: apparent Kd, MS2 coat protein; higher = weaker binding; RNA-MaP array; FMN 200 µM where present; details: ligand present: flavin mononucleotide; designed as: ON switch for flavin mononucleotide
Binary call on apparent Kd: yes from 0.02 µM upward, no beneath that.

GACGGGCAGCUCGUGAUCCCAUCGCCAGAAGGGCCACAUGAGGAUCACCCAUGUCGUAAAACAAGGCAGGAUAUGGCAGGGAAC
no
GCUGUGGCAUGAGGAUAUGGUCACGUUUCGUGACCAGAAGGCAUGUCAAUAGACAUGAGGAUCACCCAUGUAGUUAACACAGCA
yes
CGUUGUUCCGCAGGAUAUGCAUUGGAUUACAAUGCAGAAGGGCGAUAACAUGAGGAUCACCCAUGUGUGGACAAUAAGGAAGAG
yes
AUAUAUACCCAGAAGGUGCCAGCGAGAGCUGCACAUGAGGAUCACCCAUGUUGUCGGUGACGACGCAAGGAUAUGGGUAUAUAU
no
CGAGACCUCACAGGAUAUGCUGGACUUUGUCCAGCAGAAGGGUGAAAACAUGAGGAUCACCCAUGUAUGGUCUCCAAAUUUAAU
no
AACGCAGAAAUCGCAAUACAUGAGGAUCACCCAUGUAGAUCACAGGAUAUGGUCUAGUCAGUGGUCCAGAAGGGUGAUCAGAAC
yes
CCUAAGGACACAGGAUAUAGCGUGGCGGCUGGACUCCAACGGCGAACGGCGCUAGAAGGGUGACCACAUGAGGAUCACCCAUGU
yes
GUGGCGACGUAGAAGGGUGACAUGAGGAUCACCCAUGUGCCGAUAUUUCUCGAGAUAUGUCGGCCACAGGAUAUACGUGCCAUC
yes
AAGUCACAUGAGGAUCACCCAUGUCGUAAACGAUGAGGAUAUAGGAACGAAAGAAAAAAACUAGAAGGUAUAACAA
yes
UUUUAAUAAGAGAAGGAGCACUUCAUGAGGAUCACCCAUGUGUUAGUAGUUAGGAUAUUUAAUAACAUGAGGAUCACCCAUGUC
yes
GCACGAGACUAAGGAUAUGGUGUAUCUACAUGAAACAUGAGGAUCACCCAUGUAGUAAGUAUGAUUCAGAAGGUAGAGACGUGC
yes
ACAUGAGGAUCACCCAUGUUAAACGAGGAUAUUUGACUGCACAUGAGGUUCGCCCAUGUCCUGCCGAAGAAGGUGUGAAUAAUU
no
CCGUCGCACCAGAAGGCGUGAUCCACUGCGGCACGAGGAUAUGGUACAUGAGGAUCACCCAUGUCGCGAUGGAAAGCAAUCACG
yes

###

test system: MS2 coat protein; test: apparent Kd, MS2 coat protein; higher = weaker binding; RNA-MaP array; conditions: ligand present: tryptophan; designed as: OFF switch for tryptophan
Entries and their measured apparent Kd follow.
measurement.type: apparent Kd (nM)

CUGCCACGAACGGCCGCCACUUACAUGAGGAUCACCCAUGUGCCUGCGCACAAAGAAUGUCAAGAAAGGACCGGGUUCAAAUAGU
66.8
CAAAAUGCGGCGGCCGCCACUCAGCUCCGUGUGGUUGGUCAUCUUAACAUGAGGAUCACCCAUGUGAGGACCGGGCCAGCGAGUG
13.9
UGUACCUGUAUCUGGUCCAUAGUAUAACCUCGAGGACCGGUACGGCCGCCACUCGUCGGACCACAUGAGGAUCACCCAUGUACCG
12.7
GAUCCGUACCAGACCUUCAAUGGACUCAGUCGAGGACCGGUACGGCCGCCACUCGGAGAAGAACAUGAGGAUCACCCAUGUGAUG
53.8

###

tested on: MS2 coat protein; experiment: apparent Kd, MS2 coat protein; higher = weaker binding; RNA-MaP array; conditions: designed as: ON switch for flavin mononucleotide; no ligand
measurement.type: apparent Kd (nM)

UGUAGACAUGAGGAUCACCCAUGUGCAACUGCAACAGGAUAUAGGGAGCGAUAGGAACGCCUAGAAGGGUUGAUCU
28.2
UCACAUGAGGAUCACCCAUGUAAAUCACACGACGGUGCUGUCAAGGAUAUGUUACGCUCAGGGCUACAGAAGGUGAUGGUCAAG
52.7
AGCUCGUAGACAUGAGGAUCACCCAUGUAGAUCAAGAAAUUCAAGGAUAUUGGGAGUAAGCCGUGCAAGAAGGUGAGACUAGAU
57
UAAGAAGUCCAGAAGGUAGCCCUACCGUACAGCUAAGGAUAUGGCUCACCGGUUUCAACAUGAGGAUCACCCAUGUCCUCCCGG
55.9
ACGAGAGCCCAGAAGGACACGGGAUACUCACAAGCAUUCUGGACAUGAGGAUCACCCAUGUGUAUGUAGGAUAUGGGAGUUGCG
31
ACCUAUACUCCAGGAUAUCAAGACCGAUGACAUGAGGAUCACCCAUGUCAAUCAAAACCAUGACGUGAGAAGGGGAGGCUCGUC
6.5
GCCUCGAACUCAGGAUAUCAGAGAGGUUGCCGCUGAGAAGGGAGACAUGAGGAUCACCCAUGUACAGUCAUGACCGUCGAGUUG
65.8

###

tested on: MS2 coat protein; experiment: apparent Kd, MS2 coat protein; higher = weaker binding; RNA-MaP array; FMN 200 µM where present; conditions: ligand present: flavin mononucleotide; designed as: OFF switch for flavin mononucleotide
measurement.type: apparent Kd (nM)

UCCUCCGCAGGAUAUACAUGGGCGCCCGUCUUCAACCAUUAACAUGAGGAUCACCCAUGUAGAAGGGCGUCUCU
15.5
GGACUUCCUGAGGAUAUGAAUCAACAUAUAGCUUUAGAAGGCAGGACAUGAGGAUCACCCAUGUGAACUCUUUC
57.6
GCAGAUCAAGUGAGGAUAUCGUCUACCUCGGUAGACGAGAAGGCACAUGAGGAUCACCCAUGUGAUUGAUCUGC
23.6
CGUCCUCUAGUUAGGAUAUUGUCUCGGAUACGAAACAAGAAGGGACAUGAGGAUCACCCAUGUAAUGAGGACGA
28.2
GGAUGUCAAAGACAUCCAAUACGAACAUGAGGAUCACCCAUGUAGGAUAUGCUACUCAAAGAGUAGCAGAAGGACAUGUGUCUU
164
CUUUUGUGAGGAUAUCAGUAGUAAAAAAAUAAAAUUACUACUGAGAAGGUACAUGAGGAUCACCCAUGUUCCUC
17.6
CAUAUACAUGAGGAUCACCCAUGUGAGGAUAUGCUUUAUUAUUAUUAUUAUUAUUGUUGCAGAAGGUACAUUAC
20.6

###

test system: MS2 coat protein; assay: apparent Kd, MS2 coat protein; higher = weaker binding; RNA-MaP array; FMN 200 µM where present; conditions: designed as: OFF switch for flavin mononucleotide; no ligand
Entries and their measured apparent Kd follow.
measurement.type: apparent Kd

GGAAUAAAUGCAGGAUAUACGUGGAAAGCCCUCAACAUGAGGAUCACCCAUGUAGAAGGGCAUCUCCCGACCGAAGCGGAUCUC
4.41 nM
CUGGGAUCAGUAGGAUAUGCCGGACAUGAGGAUCACCCAUGUAAGGCGUGCUUCCCUCGCGUGCGGCAGAAGGGCUGCAUCACA
32.7 nM
UUGUACCGGUGAGGAUAUUUUUAAUAGAACUUUAUGAUAUACAUGAGGAUCACCCAUGUUACUUUAAAGAAGGCAUCGGAUUAU
18.9 nM
AAAGAAACAGGAUAUGUAGGCUGCGACAUGAGGAUCACCCAUGUGUCGGUAUACAGUCCUAUAGAAGGGUUAUGAC
15.5 nM
UAUUAUAUAGAGAAGGACAUGAGGAUCACCCAUGUCGCCGGGCCCGGGAAACCGGGCCCGGCCAUGUAGGAUAUCUAUAUGGUA
4.96 nM
CUACUCGUUGUGAGGAUAUCGUUUUCGUCACGGAUCGAGAAGGCACAUGAGGAUCACCCAUGUUUGAUGUGGAU
32.1 nM
UAAAUACAUGAGGAUCACCCAUGUGAGGAUAUCCGAUGAUUCGGAGAAAGGACCCGUUGGAGAAGGCAUAGGGC
27.1 nM
UGAUCUUGUGUCAGGAUAUGCUGGUCUCCUCUCCAGCAGAAGGGACAUGAGGAUCACCCAUGUUCUCUCUUUUU
11 nM
UGAGUGUGAGGAUAUAUGGUAGGGAUGAAGGGAUAGAAUUAGUAGAAGGUACAUGAGGAUCACCCAUGUUAGGA
24.4 nM
CUUUUGUGAGGAUAUCAGUAGUAAAAAAAUAAAAUUACUACUGAGAAGGUACAUGAGGAUCACCCAUGUUCCUC
14.2 nM
GGUCAUCAAGUCAGGAUAUCGUCUGGUCAAUCAGGCGAGAAGGGACAUGAGGAUCACCCAUGUCGACUCAUCAG
33.9 nM
GAUUCACAUGAGGAUCACCCAUGUGAGGAUAUAGUGCAAGAGGUGGAUGCCCACCUCCCUAGAAGGCACACGGG
28.6 nM
GGAAAGUGAGGAUAUGCAUAACAAACACAAACACAAACAAAGCAGAAGGCACAUGAGGAUCACCCAUGUAAACA
21.1 nM
AAAAAACAUGAGGAUCACCCAUGUGAGGAUAUCUGAAAAAAAAAAAAAAAAAAGAAAAAGAGAAGGCGCAAAGA
124 nM
UUUUAACAUGAGGAUCACCCAUGUGAGGAUAUCGAAAUUUUUAUUAAUAUUAAUAAAACGAGAAGGCACAUUUU
56 nM
